// reported MIC per item
Tested on: M. tuberculosis H37Rv (ATCC 27294)
protocol-text: Anti-Mycobacterium activity, microplate Alamar Blue Assay (MABA)
Format: cell-based, Mycobacterium tuberculosis
test-parameters: Mycobacterium tuberculosis, H37Rv strain, minimum concentration achieving 90% inhibition

compound	MIC
O=C(N/N=C/c1ccc2c(c1)OCCO2)c1ccc(O)cc1	68.7 µg/mL
NNC(=O)c1ccncc1 [Isoniazid, reference compound]	0.039 µg/mL
O=C(N/N=C/c1cccs1)c1ccc(O)cc1	> 100 µg/mL
CCc1ccc(/C=N/NC(=O)c2ccc(O)cc2)cc1	79.4 µg/mL
O=C(N/N=C/c1ccc(Br)cc1)c1ccc(O)cc1	< 50 µg/mL
O=C(N/N=C/c1ccc(Cl)cc1)c1ccc(O)cc1	< 50 µg/mL
COc1ccccc1/C=N/NC(=O)c1ccc(O)cc1	> 100 µg/mL
Cn1cccc1/C=N/NC(=O)c1ccc(O)cc1	> 100 µg/mL
O=C(N/N=C/c1ccc([N+](=O)[O-])o1)c1ccc(O)cc1 [Nfz, Nifuroxazide]	< 20 µg/mL
O=C(N/N=C/c1ccccc1[N+](=O)[O-])c1ccc(O)cc1	> 100 µg/mL

====

Test system: M. tuberculosis H37Rv (ATCC 27294)
protocol-text: Anti-Mycobacterium activity, microplate Alamar Blue Assay (MABA)
Format: cell-based, Mycobacterium tuberculosis
test-parameters: Mycobacterium tuberculosis, H37Rv strain, minimum concentration achieving 90% inhibition
// reported MIC per item

molecule	MIC
O=C(N/N=C/c1ccc([N+](=O)[O-])cc1)c1ccc(O)cc1 [Nfz-18]	186 mg/L
CC(=O)Nc1ccc(/C=N/NC(=O)c2ccc(O)cc2)cc1 [Nfz-24]	> 100 mg/L
COc1cc(/C=N/NC(=O)c2ccc(O)cc2)cc(OC)c1OC [Nfz-14]	> 200 mg/L
COc1c(N2C[C@@H]3CCCN[C@@H]3C2)c(F)cc2c(=O)c(C(=O)O)cn(C3CC3)c12 [Moxifloxacin, reference compound]	0.184 mg/L
O=C(N/N=C/c1ccc(-c2ccccc2)cc1)c1ccc(O)cc1 [Nfz-22]	> 100 mg/L

====

Tested on: J774.2 mouse macrophage cells
protocol-text: Cytotoxicity on macrophages (MTT)
Type: cell-based
test-parameters: J774.2 macrophages, 48 h, MTT
outcome-measure: CC50

compound	outcome-measure	result
CNC[C@H](O)[C@@H](O)[C@H](O)[C@H](O)CO.[O]=[Sb](=[O])[OH] [Glucantime, reference compound]	CC50	> 200 µM

====

protocol-text: Cytotoxicity on macrophages (MTT)
Format: cell-based, mouse
test-parameters: mouse, J774.2 macrophage cells, J774.2 macrophages, 48 h, MTT; read-out: Cytotoxicity (CC50) Macrophages J774.2
outcome-measure: CC50 at 48 h (µM)

molecule	outcome-measure	result
O=C(N/N=C/c1ccc([N+](=O)[O-])o1)c1ccc(O)cc1 [Nfz, Nifuroxazide]	CC50 at 48 h	42.2

====

System: M. tuberculosis H37Rv (ATCC 27294)
protocol-text: Anti-Mycobacterium activity, microplate Alamar Blue Assay (MABA)
Format: cell-based, Mycobacterium tuberculosis
test-parameters: Mycobacterium tuberculosis, H37Rv strain, minimum concentration achieving 90% inhibition
// reported MIC per item
outcome-measure: MIC (µg/mL)

molecule	outcome-measure	units-label	inequality-symbol	result
COc1cccc(/C=N/NC(=O)c2ccc(O)cc2)c1OC [Nfz-13]	MIC	µg/mL	=	158
O=C(N/N=C/c1ccco1)c1ccc(O)cc1 [Nfz-4]	MIC	µg/mL	>	100
O=C(N/N=C/c1ccc(Br)s1)c1ccc(O)cc1 [Nfz-2]	MIC	µg/mL	<	20
O=C(N/N=C/c1cc2c(cc1[N+](=O)[O-])OCO2)c1ccc(O)cc1 [Nfz-23]	MIC	µg/mL	>	100
CO[C@H]1/C=C/O[C@@]2(C)Oc3c(C)c(O)c4c(O)c(c(/C=N/N5CCN(C)CC5)c(O)c4c3C2=O)NC(=O)/C(C)=C\C=C\[C@H](C)[C@H](O)[C@@H](C)[C@@H](O)[C@@H](C)[C@H](OC(C)=O)[C@@H]1C [Rifampin, reference compound]	MIC	µg/mL	=	0.074
O=C(N/N=C/c1ccccc1)c1ccc(O)cc1 [Nfz-6]	MIC	µg/mL	>	100
CC(=O)NC[C@H]1CN(c2ccc(N3CCOCC3)c(F)c2)C(=O)O1 [Linezolid, reference compound]	MIC	µg/mL	=	0.33
O=C(N/N=C/c1ccc(O)cc1)c1ccc(O)cc1 [Nfz-9]	MIC	µg/mL	=	94.1

====

Test system: T. cruzi NINOA (MHOM/MX/1994/NINOA) strain epimastigotes
protocol-text: Trypanocidal activity, T. cruzi epimastigotes, NINOA strain (resazurin)
Type: cell-based, Trypanosoma cruzi
test-parameters: 48 h, listed as Bzn

compound	units-label	IC50
O=C(Cn1ccnc1[N+](=O)[O-])NCc1ccccc1 [Benznidazole, reference compound]	µM	30

====

// reported CC50 at 48 h per item
protocol-text: Cytotoxicity on macrophages (MTT)
Type: cell-based, mouse
test-parameters: mouse, Cytotoxicity (CC50) Macrophages J774.2

smiles-repr	inequality-symbol	CC50 at 48 h / µM
O=C(N/N=C/c1cc2c(cc1[N+](=O)[O-])OCO2)c1ccc(O)cc1	=	68.9
O=C(N/N=C/c1ccccc1O)c1ccc(O)cc1	>	100
CCc1ccc(/C=N/NC(=O)c2ccc(O)cc2)cc1	>	100
COC(=O)c1ccc(/C=N/NC(=O)c2ccc(O)cc2)cc1	>	100
COc1cccc(/C=N/NC(=O)c2ccc(O)cc2)c1OC	>	100
COc1cc(/C=N/NC(=O)c2ccc(O)cc2)cc(OC)c1OC	>	100
O=C(N/N=C/c1ccc(-c2ccccc2)cc1)c1ccc(O)cc1	=	43.5
O=C(N/N=C/c1ccc(O)cc1)c1ccc(O)cc1	=	82.7
O=C(N/N=C/c1ccc2ccccc2c1)c1ccc(O)cc1	=	88.3
O=C(N/N=C/c1ccc([N+](=O)[O-])cc1)c1ccc(O)cc1	=	2.45
Cn1cccc1/C=N/NC(=O)c1ccc(O)cc1	=	21.9
COc1ccc(/C=N/NC(=O)c2ccc(O)cc2)cc1	=	46.6
O=C(N/N=C/c1ccccc1[N+](=O)[O-])c1ccc(O)cc1	>	100
O=C(N/N=C/c1ccco1)c1ccc(O)cc1	>	100
CC(=O)Nc1ccc(/C=N/NC(=O)c2ccc(O)cc2)cc1	>	100
O=C(N/N=C/c1ccccc1)c1ccc(O)cc1	=	28.8
O=C(N/N=C/c1ccc2c(c1)OCCO2)c1ccc(O)cc1	>	100
COc1ccccc1/C=N/NC(=O)c1ccc(O)cc1	=	76.5
O=C(N/N=C/c1ccc(Br)s1)c1ccc(O)cc1	=	95.5
O=C(N/N=C/c1ccc([N+](=O)[O-])s1)c1ccc(O)cc1	=	43.3
O=C(N/N=C/c1ccc(Br)cc1)c1ccc(O)cc1	>	100
Cc1ccc(/C=N/NC(=O)c2ccc(O)cc2)cc1	=	91.7
O=C(N/N=C/c1ccc(Cl)cc1)c1ccc(O)cc1	=	83.2
O=C(N/N=C/c1ccc(F)cc1)c1ccc(O)cc1	=	74
